Target: SMO (Mus musculus)
Construct: endogenous in cells; host or cells: C3H10T1/2 (ATCC #CCL-226)
Experiment: Smoothened (SMO)/Sonic Hedgehog (SHh) Transient Transcriptional Activation Assay (Gli-luciferase reporter in C3H10T1/2 cells)
Format: cell-based, murine
Settings: C3H 10T1/2, 2 μM test compound, SHh 250 ng/ml, 20 hrs, read-out: SMO CELL % INHIBITION @ 2 μM
Description: As noted above, the compounds of the invention are useful as inhibitors of SMO. Methods for determining the in vitro activity of these compounds are described below: Smoothened (SMO)/Sonic Hedgehog (SHh) Transient Transcriptional Activation Assay […] Luciferase assays were conducted on Day 4 using Dual-Glo Luciferase assay system (Promega #E2940) according to Promega's protocol. […] Plates were shaken at room temperature for 10 minutes, and then read on TopCount (Perkin-Elmer). […]
Counter-ions that a name gives are not always drawn.
assay readout: inhibition at 2 µM (%)

                                    molecule  numeric_result
 0  O=C(Nc1ccc(Cl)cc1Cl)N[C@@H]1CCC[C@H](c2nc3ccccc3[nH]2)C1 [Example 234]             108
 1  O=C(N[C@@H]1CCC[C@H](c2nc3ccccc3[nH]2)C1)C1=Cc2ccccc2OC1 [Example 193]              53
 2  O=C(N[C@@H]1CCC[C@H](c2nc3cc(Br)ccc3[nH]2)C1)c1ccc2c(c1)OCCO2 [Example 149, HCl]             103
 3  [N-]=[N+]=Nc1c(F)c(F)c(C(=O)NC23CCCC(c4nc5cc(C(F)(F)F)ccc5[nH]4)(C2)C3)c(F)c1F [Example 302]            97.1
 4  O=C(N[C@@H]1CCC[C@H](c2nc3ccccc3[nH]2)C1)c1ccc2nsnc2c1 [Example 206]              56
 5  O=C(CCc1nc2ccccc2[nH]1)NC1CCCC(c2nc3ccccc3[nH]2)C1 (centres unmarked) [Example 148]              50
 6  O=C1Cc2cc(C(=O)N[C@@H]3CCC[C@H](c4nc5ccccc5[nH]4)C3)ccc2N1 [Example 219]              87
 7  Cn1cncc1C(=O)N[C@@H]1CCC[C@H](c2nc3ccccc3[nH]2)C1 [Example 174, HCl]              64
 8  O=C(N[C@@H]1CCC[C@H](c2nc3ccc(C(F)(F)F)cc3[nH]2)C1)c1ccc2c(c1)OCCO2 [Example 223, HCl]             105
 9  O=C(Cc1ccc(Cl)s1)NC1CCCC(c2nc3ccccc3[nH]2)C1 (centres unmarked) [Example 131]             101
10  Cn1c(=O)[nH]c2cc(C(=O)N[C@@H]3CCC[C@H](c4nc5ccccc5[nH]4)C3)ccc21 [Example 217]              85
11  N#Cc1ccc(NC(=O)N[C@@H]2CCC[C@H](c3nc4ccccc4[nH]3)C2)cc1 [Example 228]             109
12  O=C(NC1CCCC(c2nc3ccc(Cl)cc3[nH]2)C1)c1ccc2c(c1)OCCO2 (centres unmarked) [Example 85, HCl]             103
13  Cc1cccc(=O)n1CC(=O)NC1CCCC(c2nc3ccccc3[nH]2)C1 (centres unmarked) [Example 111]             103
14  Cc1ccc(C(=O)N[C@@H]2CCC[C@H](c3nc4ccccc4[nH]3)C2)c2ccccc12 [Example 183]              95
15  CCc1n[nH]c(C(=O)NC2CCCC(c3nc4ccccc4[nH]3)C2)c1C (centres unmarked) [Example 155]              64
16  O=C(N[C@@H]1CCC[C@H](c2nc3ccccc3[nH]2)C1)c1cnc(O)c(Cl)c1 [Example 169, HCl]              93
17  O=C(NC1CCCC(c2nc3ccccc3[nH]2)C1)c1ncc[nH]1 (centres unmarked) [Example 61, HCl]              52
18  N#Cc1ccc(NC(=O)NC23CCCC(c4nc5cc(C(F)(F)F)ccc5[nH]4)(C2)C3)cc1 [Example 261]            78.8
19  O=C(NC1CCCC(c2nc3ccccc3[nH]2)C1)c1n[nH]c2ccccc12 (centres unmarked) [Example 101]              56
20  Cn1c(C2CCCC(NC(=O)c3ccc4c(c3)OCCO4)C2)nc2cc(CN)ccc21 (centres unmarked) [Example 73, HCl]             104
21  COc1cc(C(=O)NC2CCCC(c3nc4ccccc4[nH]3)C2)cc2c1OCCO2 (centres unmarked) [Example 139]             105
22  COc1cc(C(=O)N[C@@H]2CCC[C@H](c3nc4ccccc4[nH]3)C2)cc2c1OCO2 [Example 222]              52
23  COc1ccc(C(=O)NC2CCCC(c3nc4ccccc4[nH]3)C2)cc1 (centres unmarked) [Example 62, HCl]              72
24  COc1ccc2cc(C(=O)N[C@H]3CCC[C@H](c4nc5ccccc5[nH]4)C3)n(C)c2c1 [Example 248, HCl]              74
25  O=C(N[C@@H]1CCC[C@H](c2nc3ccccc3n2CCO)C1)c1ccc2c(c1)OCCO2 (stereo in doubt) [Example 71]              98
26  O=C(N[C@@H]1CCC[C@H](c2nc3ccccc3[nH]2)C1)c1ccc2ccccc2c1 [Example 187]              94
27  O=C(NC1CCCC(c2nc3ccccc3[nH]2)C1)c1cnn(Cc2ccccc2)c1 (centres unmarked) [Example 91]              99
28  COc1cc(OC)cc(C(=O)N[C@@H]2CCCC(c3nc4cc(S(C)(=O)=O)ccc4[nH]3)C2)c1 (stereo in doubt) [Example 289]              81
29  O=C(NC12CCCC(c3nc4ccccc4[nH]3)(C1)C2)c1ccc2c(c1)CCCO2 [Example 279]            92.6
30  O=C(NC1CCCC(c2nc3ccc(Br)cc3[nH]2)C1)c1ccc2c(c1)OCCO2 (centres unmarked) [Example 86, HCl]             102
31  O=C(NC12CCCC(c3nc4ccccc4[nH]3)(C1)C2)c1ccc2c(c1)OCCO2 [Example 87]              91

----------
Molecular target: SMO (Mus musculus, UniProt P56726)
Construct: endogenous in cells; host or cells: C3H10T1/2 (ATCC #CCL-226)
Sequence (P56726 33-793): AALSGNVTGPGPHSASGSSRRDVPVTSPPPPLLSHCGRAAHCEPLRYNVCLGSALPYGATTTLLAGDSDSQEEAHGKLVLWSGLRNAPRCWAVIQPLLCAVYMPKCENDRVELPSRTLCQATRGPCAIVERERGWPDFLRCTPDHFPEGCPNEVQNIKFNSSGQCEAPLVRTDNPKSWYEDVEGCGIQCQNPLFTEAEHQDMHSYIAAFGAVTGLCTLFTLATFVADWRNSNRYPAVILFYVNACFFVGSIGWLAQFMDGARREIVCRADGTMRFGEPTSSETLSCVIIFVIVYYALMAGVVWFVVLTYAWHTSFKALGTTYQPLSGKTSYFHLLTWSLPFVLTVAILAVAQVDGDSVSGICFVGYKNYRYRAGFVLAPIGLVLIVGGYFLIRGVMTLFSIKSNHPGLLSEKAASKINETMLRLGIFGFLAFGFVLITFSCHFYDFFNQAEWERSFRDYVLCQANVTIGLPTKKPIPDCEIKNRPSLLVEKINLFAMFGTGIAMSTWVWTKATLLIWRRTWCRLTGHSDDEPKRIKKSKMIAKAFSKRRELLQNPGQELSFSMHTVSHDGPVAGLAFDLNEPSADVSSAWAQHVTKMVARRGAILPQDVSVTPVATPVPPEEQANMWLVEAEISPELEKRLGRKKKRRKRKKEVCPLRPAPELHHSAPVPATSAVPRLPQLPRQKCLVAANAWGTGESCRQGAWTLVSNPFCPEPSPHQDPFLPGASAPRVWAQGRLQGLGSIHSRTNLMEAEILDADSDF
Assay: Smoothened (SMO)/Sonic Hedgehog (SHh) Transient Transcriptional Activation Assay (Gli-luciferase reporter in C3H10T1/2 cells)
Type: cell-based, murine
Settings: C3H 10T1/2, 2 μM test compound, SHh 250 ng/ml, 20 hrs, read-out: SMO CELL % INHIBITION @ 2 μM
Where a name gives a salt, the structure may show the parent alone.
Label Condition met when inhibition at 2 µM is at or above 90%; otherwise label Condition not met.

>>> df
                                    compound              label
 0  O=C1CCc2cc(C(=O)N[C@@H]3CCC[C@H](c4nc5cc(C(F)(F)F)ccc5[nH]4)C3)ccc2N1 [Example 285, HCl]      Condition met
 1  O=C(NC1CCCC(c2nc3ccccc3[nH]2)C1)c1ccc2[nH]cnc2c1 (centres unmarked) [Example 60, HCl]  Condition not met
 2  Cn1c([C@H]2CCC[C@@H](NC(=O)c3ccc4c(c3)OCCO4)C2)nc2ccccc21 [Example 66, HCl]      Condition met
 3  O=C(N[C@@H]1CCC[C@@H](c2nc3ccccc3[nH]2)C1)c1ccc2c(c1)OCCO2 [Example 65, HCl]      Condition met
 4  CC(=O)N[C@H](Cc1ccccc1)C(=O)NC1CCCC(c2nc3ccccc3[nH]2)C1 (some centres unmarked)  Condition not met
 5  Cc1ccc2[nH]c(C(=O)N[C@@H]3CCC[C@H](c4nc5ccccc5[nH]4)C3)c(C)c2c1      Condition met
 6  S=C(N[C@@H]1CCC[C@H](c2nc3ccccc3[nH]2)C1)c1ccc2c(c1)OCCO2 [Example 75, HCl]      Condition met
 7  O=C(N[C@@H]1CCC[C@H](c2nc3ccccc3[nH]2)C1)C1COc2ccccc2O1 (some centres unmarked)  Condition not met
 8  Cn1cc(CC(=O)NC2CCCC(c3nc4ccccc4[nH]3)C2)c2ccccc21 (centres unmarked)      Condition met
 9  O=C(N[C@@H]1CCC[C@H](c2nc3ccccc3[nH]2)C1)c1cc2ccc(F)cc2[nH]1  Condition not met
10  Cc1ccn2cc(CCC(=O)NC3CCCC(c4nc5ccccc5[nH]4)C3)nc2c1 (centres unmarked)  Condition not met
11  O=C(NC1CCCC(c2nc3ccccc3[nH]2)C1)c1ccco1 (centres unmarked) [Example 56, HCl]  Condition not met
12  COc1cc(OC)cc(C(=O)N[C@@H]2CCC[C@H](c3nc4ccccc4n3C)C2)c1 [Example 167, HCl]      Condition met
13  O=C(NC12CCCC(c3nc4ccccc4[nH]3)(C1)C2)c1ccc(C(=O)c2ccccc2)cc1      Condition met
14  O=C(N[C@@H]1CCC[C@H](c2nc3ccccc3[nH]2)C1)c1ccc2c(c1)CNCC2 [Example 308, HCl]      Condition met
15  O=C(Nc1cc(F)cc2c1OCOC2)N[C@@H]1CCC[C@H](c2nc3ccccc3[nH]2)C1      Condition met
16  COc1cc(OC)cc(C(=O)NC2CCCC(c3nc4ccccc4[nH]3)C2)c1 (centres unmarked) [Example 52, HCl]      Condition met
17  Cc1cc(C(=O)N[C@@H]2CCC[C@H](c3nc4ccccc4[nH]3)C2)n(C)n1 [Example 177, HCl]  Condition not met
18  O=C(NC1CCCC(c2nc3ccccc3[nH]2)C1)c1ccc(-n2ccnc2)cc1 (centres unmarked)      Condition met
19  O=C1CCc2cc(C(=O)N[C@H]3CCC[C@H](c4nc5ccccc5[nH]4)C3)ccc2N1 [Example 247, HCl]      Condition met
20  O=C(NC1CCCC1)N[C@@H]1CCC[C@H](c2nc3ccccc3[nH]2)C1  Condition not met
21  CC(C)(C)C(=O)NC1CCCC(c2nc3ccccc3[nH]2)C1 (centres unmarked) [Example 55, HCl]  Condition not met
22  O=C1CCc2cc(C(=O)N[C@@H]3CCC[C@H](c4nc5cc(Cl)ccc5[nH]4)C3)ccc2N1      Condition met
23  O=C(Cc1nc2cc(Cl)ccc2[nH]1)NC1CCCC(c2nc3ccccc3[nH]2)C1 (centres unmarked) [Example 144, HCl]      Condition met
24  Cn1c(=O)[nH]c2cc(C(=O)NC3CCCC(c4nc5ccccc5[nH]4)C3)ccc21 (centres unmarked)  Condition not met
25  COc1cc(OC)cc(C(=O)N[C@@H]2CCC[C@H](c3nc4ccccc4[nH]3)C2)c1 [Example 166, HCl]      Condition met
26  O=C(N[C@@H]1CCC[C@H](c2nc3ccccc3[nH]2)C1)c1ccc2c(c1)CCO2  Condition not met
27  O=C(N[C@@H]1CCC[C@H](c2nc3ccccc3[nH]2)C1)c1cccc2ccccc12  Condition not met
